Molecular target: Alpha-1D adrenergic receptor (Rattus norvegicus, UniProt P23944)
Sequence (P23944 whole entry): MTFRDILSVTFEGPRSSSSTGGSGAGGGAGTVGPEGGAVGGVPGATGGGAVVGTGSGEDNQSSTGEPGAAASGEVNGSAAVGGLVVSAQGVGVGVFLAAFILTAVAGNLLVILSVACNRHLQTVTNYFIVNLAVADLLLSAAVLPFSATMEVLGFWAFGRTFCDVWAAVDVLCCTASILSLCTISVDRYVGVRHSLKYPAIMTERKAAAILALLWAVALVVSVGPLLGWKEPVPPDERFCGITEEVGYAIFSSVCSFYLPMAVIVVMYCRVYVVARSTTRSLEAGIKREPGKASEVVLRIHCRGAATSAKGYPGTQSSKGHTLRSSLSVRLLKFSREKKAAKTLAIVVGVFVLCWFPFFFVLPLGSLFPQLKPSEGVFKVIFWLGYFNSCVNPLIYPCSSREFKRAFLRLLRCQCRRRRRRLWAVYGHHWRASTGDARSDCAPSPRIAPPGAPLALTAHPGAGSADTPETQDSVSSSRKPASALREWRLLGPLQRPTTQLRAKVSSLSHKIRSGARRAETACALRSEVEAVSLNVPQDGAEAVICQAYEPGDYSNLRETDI
Attribute: Ki
Give the value, in units of µM, as a plain number.

Worked cases, answers included:
> print(dat)
                                   compound  measured.value
1  CCS(=O)(=O)Nc1cccc(CC2CN=CN2)c1 (stereo unspecified)            6.46
2           CCS(=O)(=O)Nc1cccc(NC2=NCCN2)c1           0.355

# next compound below
Name the recorded Ki for Oc1cccc2c1CCCC2c1c[nH]cn1 (stereo unspecified) .
0.0309

Attribution: ChEMBL document CHEMBL1148329
